Exercise: state measured pIC50 for each of the molecules provided.
# Test system: FaDu cells
# Experimental protocol: Inhibition test for sphere-forming ability of cancer cells in the presence of BSA (Test Example 2), FaDu
# Type: cell-based, human
# Condition set: in the presence of 5% BSA, cultured 4 days
Scale: pIC50 equals -log10([C]), with [C] in mol/L.

For the molecule O=C(Nc1ccncn1)c1cn(Cc2cccc(Cl)c2)cn1 [Example 261] , the measured pIC50 on FaDu cells was 6.32

For the molecule CCNc1ccc(/C=C/C(=O)Nc2cn(Cc3cccc(Cl)c3)cn2)cn1 [Example 18] , the measured pIC50 on FaDu cells was 7.52

For the molecule CNc1ccc(/C=C/C(=O)Nc2cn(Cc3cccc(C(F)(F)F)c3)cn2)cn1 [Example 17] , the measured pIC50 on FaDu cells was 7.30

For the molecule O=C(Nc1ccc2c(O)cccc2c1)c1cn(Cc2cccc(Cl)c2)cn1 [Example 256] , the measured pIC50 on FaDu cells was 5.36
